// provenance: patent US9505728B2

subject-of-test: Human PPARα (Homo sapiens)
Construct: host or cells: proprietary non-human mammalian cells
Sequence (Q07869 whole entry): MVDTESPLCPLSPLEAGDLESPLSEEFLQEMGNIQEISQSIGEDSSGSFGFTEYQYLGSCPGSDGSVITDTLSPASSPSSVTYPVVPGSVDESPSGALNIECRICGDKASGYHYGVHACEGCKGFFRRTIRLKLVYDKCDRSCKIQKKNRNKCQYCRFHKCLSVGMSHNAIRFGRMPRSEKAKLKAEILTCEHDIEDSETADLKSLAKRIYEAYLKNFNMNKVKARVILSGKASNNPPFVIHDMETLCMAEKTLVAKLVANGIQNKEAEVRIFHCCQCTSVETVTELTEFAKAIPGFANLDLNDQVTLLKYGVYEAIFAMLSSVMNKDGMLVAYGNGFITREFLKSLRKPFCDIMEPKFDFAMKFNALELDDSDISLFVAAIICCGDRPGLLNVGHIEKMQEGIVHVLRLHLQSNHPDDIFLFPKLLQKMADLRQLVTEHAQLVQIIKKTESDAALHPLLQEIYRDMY
experiment: Human PPARα Reporter Assay (luciferase)
Format: cell-based
experimental-context: human PPARα reporter cells, overnight incubation, antagonism; read-out: Luciferase IC50
reported-endpoint: IC50 (nM)

{"compound": "CCn1c(CCCc2ccc(-c3ccc(OC)c(CC(=O)NS(=O)(=O)c4ccccc4)c3)cc2)nn(Cc2ccc(C(C)(C)C)cc2)c1=O [Example 136]", "IC50 / nM": 41}
{"compound": "CCn1c(CCCc2ccc(-c3ccc(C(F)(F)F)c(NS(=O)(=O)c4ccccc4)n3)cc2)nn(Cc2ccc(C(C)(C)C)cc2)c1=O [Example 164]", "IC50 / nM": 20}
{"compound": "CCn1c(CCCc2ccc(-c3cccc(CC(=O)O)c3)cc2)nn(Cc2ccc(C(C)(C)C)s2)c1=O [Example 54]", "IC50 / nM": 499}
{"compound": "CCn1c(CCCc2ccc(-c3cncc(N)c3)cc2)nn(Cc2ccc(C(C)(C)C)cc2)c1=O [Example 109]", "IC50 / nM": 590}
{"compound": "CCn1c(CCCc2ccc(-c3ccc(NS(=O)(=O)Cc4ccccc4)cn3)cc2)nn(Cc2ccc(C(C)(C)C)cc2)c1=O [Example 79]", "IC50 / nM": 263}

a = CCn1c(CCCc2ccc(-c3cc(CC(=O)O)cc(OC)c3)cc2)nn(Cc2ccc(C(C)(C)C)cc2)c1=O [Example 194]
b = CCn1c(CCCc2ccc(-c3ccc(OC)c(NS(=O)(=O)C4CC4)n3)cc2)nn(Cc2ccc(C(C)(C)C)cc2)c1=O [Example 190]
Qu. Parameter metric = IC50. Return the lower-valued option from a and b . Answer format: the label of the selected item.
Ans. b
